Values from patent US9051270B2

experiment: Microsomal stability assay, human liver microsomes (HLM); assay type: in vitro ADME; details: human liver microsomes 0.5 mg/mL, 1 uM substrate, 2 mM NADPH, 37° C., referenced against time zero control

| Molecule smiles | HLM (% remaining @ 30 minutes) (%) |
| --- | --- |
| O=C(Nc1cc[nH]c(=O)c1)c1cc(C(F)(F)F)ccc1Oc1ccc(F)c(F)c1F | 101 |
| Cc1ccccc1Oc1ccc(C(F)(F)F)cc1C(=O)Nc1cc[nH]c(=O)c1 | 79 |
| O=C(Nc1cc[nH]c(=O)c1)c1ccc(C(F)(F)F)cc1Oc1ccc(OC(F)(F)F)cc1 | 103 |
| O=C(Nc1cc[nH]c(=O)c1)c1ccc(C(F)(F)C(F)(F)F)cc1Oc1ccc(F)cc1 | 100 |
| COCCOc1ccc(Oc2cc(C(F)(F)F)ccc2C(=O)Nc2cc[nH]c(=O)c2)cc1 | 90 |
| O=C(Nc1cc[nH]c(=O)c1)c1cc(OC(F)(F)F)ccc1Oc1ccc(F)cc1F | 100 |
| COc1cc(F)ccc1Oc1cc(Cl)c(Cl)cc1C(=O)Nc1cc[nH]c(=O)c1 | 91 |
| O=C(Nc1cc[nH]c(=O)c1)c1cc(C(F)(F)F)ccc1Oc1ccccc1OC(F)(F)F | 90 |
